The compounds listed here are annotated with their minimal effective dose.
System: Substance P Induced Plasma Extravasation
assay: Antagonism of substance P induced plasma extravasation in guinea-pigs
Format: in vivo, guinea-pig
experimentalConditions: Cavia porcellus, sc, 10 min; s.c., 1 hour prior to substance P; nose; read-out: lowest active dose (LAD), nose
Express it in mg/kg; write the number only.

Reference set, count: 2
# compound, testedTarget, minimal effective dose / mg/kg
measured = [
    ("Cc1cc(C)cc(C(=O)N2CC[C@@H](N3CCC(C4c5ccccc5CCn5ccnc54)CC3)C[C@@H]2Cc2ccccc2)c1 (stereo partly shown) [Compound 27]", "Substance P Induced Plasma Extravasation", 2.5),
    ("O=C(c1cc(C(F)(F)F)cc(C(F)(F)F)c1)N1CC[C@@H](N2CCC(=C3c4ccsc4CCn4ccnc43)CC2)C[C@H]1Cc1ccccc1 (relative stereo) [Compound 18]", "Substance P Induced Plasma Extravasation", 10),
]

Under Substance P Induced Plasma Extravasation: minimal effective dose value of Cc1cc(C)cc(C(=O)N2CC[C@@H](N3CCC(=C4c5ccn(C)c5CCn5ccnc54)CC3)C[C@@H]2Cc2ccccc2)c1 (relative stereo) [Compound 34] ?
0.63

Moving on to O=C(c1cc(C(F)(F)F)cc(C(F)(F)F)c1)N1CC[C@H](N2CCC(=C3c4ccccc4OCn4ccnc43)CC2)C[C@@H]1Cc1ccccc1 (relative stereo) [Compound 113]
10

Moving on to Cc1cc(C)cc(C(=O)N2CC[C@H](N3CCC(=C4c5ccsc5CCn5ccnc54)CC3)C[C@H]2Cc2ccccc2)c1 (relative stereo) [Compound 39]
2.5

Moving on to Cc1cc(C)cc(C(=O)N2CCC(N3CCC(C4c5ccccc5Cn5ccnc54)CC3)CC2Cc2ccccc2)c1 (stereo not shown) [Compound 108]
10

Moving on to O=C(c1cc(C(F)(F)F)cc(C(F)(F)F)c1)N1CC[C@H](N2CCC(=C3c4ccccc4CCn4c3nc(CO)c4CO)CC2)C[C@@H]1Cc1ccccc1 (relative stereo) [Compound 52]
2.5

Moving on to O=C(c1cc(C(F)(F)F)cc(C(F)(F)F)c1)N1CC[C@@H](N2CCC(=C3c4ccccc4OCn4ccnc43)CC2)C[C@@H]1Cc1ccccc1 (relative stereo) [Compound 114]
2.5

Moving on to O=C(c1cc(C(F)(F)F)cc(C(F)(F)F)c1)N1CC[C@@H](N2CCC(=C3c4ccsc4CCn4ccnc43)CC2)C[C@@H]1Cc1ccccc1 (relative stereo) [Compound 19]
2.5

Moving on to Cc1cc(C)cc(C(=O)N2CC[C@H](N3CCC(=C4c5ccccc5CCn5ccnc54)CC3)C[C@@H]2Cc2ccccc2)c1 (racemic) [Compound 1]
10

Moving on to O=C(c1cc(C(F)(F)F)cc(C(F)(F)F)c1)N1CC[C@@H](N2CCC(=C3c4sccc4CCn4ccnc43)CC2)C[C@@H]1Cc1ccccc1 (relative stereo) [Compound 7]
2.5

Moving on to Cc1cc(C)cc(C(=O)N2CC[C@@H](N3CCC(=C4c5ccccc5CCn5c(C=O)cnc54)CC3)C[C@@H]2Cc2ccccc2)c1 (relative stereo) [Compound 25]
2.5

Moving on to Cc1cc(C)cc(C(=O)N2CC[C@@H](N3CCC(C4c5ccccc5CCn5ccnc54)CC3)C[C@H]2Cc2ccccc2)c1 (stereo partly shown) [Compound 26]
10

Moving on to O=Cc1cnc2n1CCc1ccccc1C2=C1CCN([C@@H]2CCN(C(=O)c3cc(C(F)(F)F)cc(C(F)(F)F)c3)[C@@H](Cc3ccccc3)C2)CC1 (relative stereo) [Compound 16]
2.5
